This section presents variants with their documented self-cleavage kobs at 2500 uM GlcN6P values.
B1: glmS ribozyme (parent)
chain: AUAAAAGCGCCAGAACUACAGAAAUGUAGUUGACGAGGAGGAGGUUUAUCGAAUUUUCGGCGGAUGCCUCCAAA

variants of: B1; test: self-cleavage kobs at 2500 uM GlcN6P; higher = faster cleavage; RNA array; details: with glucosamine-6-phosphate
Variants at the floor of the assay were thinned out.
Quick reminder: number only, in s⁻¹, skip the unit.

Guide cases for self-cleavage kobs at 2500 uM GlcN6P, answers given:
>>> readout_value("A53G U57A")
0.000134
>>> readout_value("C10A G62C C68A")
0.00024
>>> readout_value("A15U C58U U69A")
0.000115
>>> readout_value("U69C C71U")
0.000432
>>> readout_value("C11A A14G G29U")
"5.93e-05"

// self-cleavage kobs at 2500 uM GlcN6P lookup, key: U46C U49G
8.96e-05

// returns reported self-cleavage kobs at 2500 uM GlcN6P for input G13A U31A G32A C50G C67G
5.25e-05
